# System: TOV-21G
# procedure text: Cell viability analysis, ovarian cancer TOV-21G
# Type: cell-based, human
# experimental conditions: Homo sapiens, TOV21G, 72 h; TOV-21G; repeated experiment; read-out: The results of antibiotic drug inhibiting cancer cell lines (cell viability analysis), TOV-21G
parameter measured: viability at 10 µM (%)
The answer is to be given in %; state only the numeric part.

Recorded viability at 10 µM, per entry:
molecule="CC(C)/N=c1\\cc2n(-c3ccc(Cl)cc3)c3ccccc3nc-2cc1Nc1ccc(Cl)cc1 [Clofazimine]" system_under_test=TOV-21G units_text=% reading=65.1
molecule="CC[C@@H]([C@H](C)O)n1ncn(-c2ccc(N3CCN(c4ccc(OC[C@@H]5CO[C@@](Cn6cncn6)(c6ccc(F)cc6F)C5)cc4)CC3)cc2)c1=O [Posaconazole]" system_under_test=TOV-21G units_text=% reading=37.3
molecule="NC(=O)N/N=C/c1ccc([N+](=O)[O-])o1 [Nitrofurazone (Nitrofural), Nitrofurazone]" system_under_test=TOV-21G units_text=% reading=95.7

Here is another molecule to look at.
viability at 10 µM for COC(=O)Nc1nc2ccc([S+]([O-])c3ccccc3)cc2[nH]1 (stereo not shown) [Oxfendazole] ?
65.1

###

# Tested on: A375 (Amelanotic Melanoma)
# procedure text: Cell viability analysis, skin cancer A375
# Assay type: cell-based, human
# experimental conditions: Homo sapiens, A-375; drug 10 μM, 72 hours, WST-1, OD450 nm; read-out: cell viability (survival rate), A375
Where a name gives a salt, the structure may show the parent alone.
parameter measured: viability at 10 µM (%)
Express the result in % but write the number alone.

Below, 4 compounds whose answers are already recorded.
compound="O=C(Nc1ccccc1)c1ccccc1O [Salicylanilide]" reading=92.8
compound=CNC[C@H](O)[C@@H](O)[C@H](O)[C@H](O)CO reading=78.2
compound="Cc1cc(C(C)(C)C)cc(C)c1CC1=NCCN1 [Xylometazoline HCl]" reading=65.1
compound="CCOC(=O)CCC(=O)O[C@H]1[C@H](O[C@@H]2[C@@H](C)[C@H](O[C@H]3C[C@@](C)(OC)[C@@H](O)[C@H](C)O3)[C@@H](C)C(=O)O[C@H](CC)[C@@](C)(O)[C@H](O)[C@@H](C)C(=O)[C@H](C)C[C@@]2(C)O)O[C@H](C)C[C@@H]1N(C)C [Erythromycin Ethylsuccinate]" reading=75

# ---- query compound ----
Which viability at 10 µM is reported with A375 (Amelanotic Melanoma) for this entry: CCC[S+]([O-])c1ccc2[nH]c(NC(=O)OC)nc2c1 (centres unmarked) [Albendazole Oxide (Ricobendazole), Albendazole Oxide] ?
92.9

###

# Test system: NIH: OVCAR-3
# procedure text: Cell viability analysis, ovarian cancer NIH: OVCAR-3
# Assay type: cell-based, human
# experimental conditions: Homo sapiens, OVCAR-3, 72 h, read-out: The results of antibiotic drug inhibiting cancer cell lines (cell viability analysis), NIH-OVCAR-3
Form field: viability at 10 µM (one value per entry).
Hi, when you answer, please include the unit after the number. Thanks!

molecule="CCCOc1ccc2nc(NC(=O)OC)[nH]c2c1 [Oxibendazole]" parameter_measured="viability at 10 µM" reading=54.8%
molecule="CN(C)c1cc(NC(=O)CNC(C)(C)C)c(O)c2c1C[C@H]1C[C@H]3[C@H](N(C)C)C(O)=C(C(N)=O)C(=O)[C@@]3(O)C(O)=C1C2=O [Tigecycline]" parameter_measured="viability at 10 µM" reading=91.1%
molecule="CO[C@H]1/C=C/O[C@@]2(C)Oc3c(C)c(O)c4c(O)c(c(/C=N/N5CCN(C6CCCC6)CC5)c(O)c4c3C2=O)NC(=O)/C(C)=C\\C=C\\[C@H](C)[C@H](O)[C@@H](C)[C@@H](O)[C@@H](C)[C@H](OC(C)=O)[C@@H]1C [Rifapentine (Priftin), Rifapentine]" parameter_measured="viability at 10 µM" reading=104%
molecule="CCC[S+]([O-])c1ccc2[nH]c(NC(=O)OC)nc2c1 (stereo not shown) [Albendazole Oxide (Ricobendazole), Albendazole Oxide]" parameter_measured="viability at 10 µM" reading=72.1%
molecule="CC(C)c1nc(CN(C)C(=O)N[C@H](C(=O)N[C@@H](Cc2ccccc2)C[C@H](O)[C@H](Cc2ccccc2)NC(=O)OCc2cncs2)C(C)C)cs1 [Ritonavir]" parameter_measured="viability at 10 µM" reading=92.2%

Entry under review: Cc1ncc([N+](=O)[O-])n1CCO [Metronidazole (Flagyl), Metronidazole] . Reported viability at 10 µM?
110%

Which viability at 10 µM is reported for this molecule? O=c1[nH]c(=O)n([C@H]2C[C@H](O)[C@@H](CO)O2)cc1C(F)(F)F [Trifluridine (Viroptic), Trifluridine]
105%

###

Listed next: entries and their corresponding viability at 10 µM.
# Test system: MCF7 (Mammary Gland, Adenocarcinoma)
# procedure text: Cell viability analysis, breast cancer MCF7
# Assay type: cell-based, human
# experimental conditions: Homo sapiens, MCF7, 72 h, read-out: cell viability (survival rate), MCF7
Answer in %, number only, no unit symbol.

Completed entries (count: 4):
compound="CCCCCCCCCCCCCCCC[n+]1ccccc1 [Cetylpyridinium Chloride]" system_under_test="MCF7 (Mammary Gland, Adenocarcinoma)" reading=40.9
compound="Cl.NCCc1ccc(O)c(O)c1 [Dopamine hydrochloride (Inotropin), Dopamine hydrochloride]" system_under_test="MCF7 (Mammary Gland, Adenocarcinoma)" reading=148
compound=COc1cc(C)c(/C=C/C(C)=C/C=C/C(C)=C/C(=O)O)c(C)c1C system_under_test="MCF7 (Mammary Gland, Adenocarcinoma)" reading=119
compound="O=C([O-])c1ccccc1O.[Na+] [Sodium salicylate]" system_under_test="MCF7 (Mammary Gland, Adenocarcinoma)" reading=89

Field request: viability at 10 µM | item: C[N+](C)(C)CCO.[Cl-] [Choline Chloride]
108

###

# Tested on: TSGH-8301 (Urinary Bladder Carcinoma)
# procedure text: Cell viability analysis, bladder cancer TSGH-8301
# Type: cell-based, human
# experimental conditions: Homo sapiens, 72 h, read-out: The results of antibiotic drug inhibiting cancer cell lines (cell viability analysis), TSGH-8301, TSGH-8301; repeated experiment
Here the recorded viability at 10 µM is given for each entry.

Checklist item: viability at 10 µM tested on TSGH-8301 (Urinary Bladder Carcinoma), entry CCOc1ccc(NC(C)=O)cc1 [Phenacetin] , value?
128%

###

# System: SAS (Tongue squamous cell carcinoma)
# procedure text: Cell viability analysis, tongue cancer SAS
# Assay type: cell-based, human
# experimental conditions: SAS; repeated experiment
In this section, each of the compounds is paired with its reported The results of antibiotic drug inhibiting cancer cell lines (cell viability analysis), SAS.
Form: value (number only, do not type unit).

Study these solved cases before continuing.
compound="CCCCCCCCCCCCCCCC[N+](C)(C)C.[Br-] [Cetrimonium Bromide]" reading=21.73
compound="COC(=O)Nc1nc2cc(C(=O)c3ccc(F)cc3)ccc2[nH]1 [Flubendazole (Flutelmium)]" reading=45.16
compound="CC1(C)S[C@@H]2[C@H](NC(=O)[C@H](N)c3ccc(O)cc3)C(=O)N2[C@H]1C(=O)[O-].[Na+] [Amoxicillin sodium (Amox), Amoxicillin sodium]" reading=66.94

Here is the next item to consider.
Which The results of antibiotic drug inhibiting cancer cell lines (cell viability analysis), SAS value belongs to Cc1onc(-c2ccccc2Cl)c1C(=O)N[C@@H]1C(=O)N2[C@@H]1SC(C)(C)[C@@H]2C(=O)[O-].[Na+] [Cloxacillin sodium (Cloxacap)] ?
70.4

###

# Test system: A375 (Amelanotic Melanoma)
# procedure text: Cell viability analysis, skin cancer A375
# Assay type: cell-based, human
# experimental conditions: Homo sapiens, A-375, 72 h, read-out: cell viability (survival rate), A375, drug 10 μM, 72 hours, WST-1, OD450 nm
Counter-ions that a name gives are not always drawn.
parameter measured: viability at 10 µM (%)
Response body: numeric value in %, unit text excluded.

compound="NC[C@@H]1O[C@H](O[C@H]2[C@@H](O)[C@H](O[C@@H]3[C@@H](O)[C@H](N)C[C@H](N)[C@H]3O[C@H]3O[C@H](CO)[C@@H](O)[C@H](O)[C@H]3N)O[C@@H]2CO)[C@H](N)[C@@H](O)[C@@H]1O [Paromomycin Sulfate]" parameter_measured="viability at 10 µM" reading=91.4
compound="Cc1cc2c(s1)Nc1ccccc1N=C2N1CCN(C)CC1 [Olanzapine (Zyprexa), Olanzapine]" parameter_measured="viability at 10 µM" reading=91.9
compound="CCc1cc(C(N)=S)ccn1 [Ethionamide]" parameter_measured="viability at 10 µM" reading=76.6

Any idea what its viability at 10 µM is? The compound is C[N+]1(C)[C@@H]2C[C@@H](OC(=O)C(O)(c3cccs3)c3cccs3)C[C@H]1[C@@H]1O[C@@H]12 [Tiotropium Bromide hydrate]
86.3

###

The following compounds are shown together with reported viability at 10 µM values.
# Test system: PC3 (p53−) (Prostate Adenocarcinoma)
# procedure text: Cell viability analysis, prostate cancer PC3
# Type: cell-based, human
# experimental conditions: Homo sapiens, 72 h, read-out: cell viability (survival rate), PC3, drug 10 μM, 72 hours, WST-1, OD450 nm
Where a name gives a salt, the structure may show the parent alone.
Phrase the answer as number then unit, nothing more needed.

Reference set, count: 3
compound="CN(C)c1ccc(C(=C2C=CC(=[N+](C)C)C=C2)c2ccc(N(C)C)cc2)cc1 [Crystal violet]" system_under_test="PC3 (p53−) (Prostate Adenocarcinoma)" reading=31.8%
compound="Cc1cc(NS(=O)(=O)c2ccc(N)cc2)no1 [Sulfamethoxazole]" system_under_test="PC3 (p53−) (Prostate Adenocarcinoma)" reading=44.9%
compound="Cc1ccccc1C(OCCN(C)C)c1ccccc1 (centres unmarked) [Orphenadrine citrate (Norflex), Orphenadrine citrate]" system_under_test="PC3 (p53−) (Prostate Adenocarcinoma)" reading=41.6%

Looking for the measured viability at 10 µM of Nc1ncnc2c1ncn2[C@@H]1O[C@H](CO)[C@@H](O)[C@@H]1O [Vidarabine (Vira-A), Vidarabine] , can you help?
70.6%

Could you share which viability at 10 µM value was measured for O=c1cc[nH]c(=O)[nH]1 [Uracil] ?
163%

Would you kindly share the measured viability at 10 µM for Nc1ccc(S(=O)(=O)Nc2ncccn2)cc1 [Sulfadiazine] ?
70.1%

Could you tell me which viability at 10 µM is on file for CCN1CCN(c2cc3c(cc2F)c(=O)c(C(=O)O)cn3C2CC2)CC1 [Enrofloxacin] ?
48.6%

Requested read-out: viability at 10 µM. Entry: C[C@H]1COc2c(N3CCN(C)CC3)c(F)cc3c(=O)c(C(=O)O)cn1c23 [Levofloxacin (Levaquin), Levofloxacin]
29.6%

Data request, read-out viability at 10 µM, for CN(C)c1ccc(O)c2c1C[C@H]1C[C@H]3[C@H](N(C)C)C(O)=C(C(N)=O)C(=O)[C@@]3(O)C(O)=C1C2=O [Minocycline HCl]
53.8%

Fill blank: measured viability at 10 µM of the compound C[C@@H]1C/C=C/C=C/C=C/C=C/[C@H](O[C@@H]2O[C@H](C)[C@@H](O)[C@H](N)[C@@H]2O)C[C@@H]2O[C@](O)(C[C@@H](O)C[C@H]3O[C@@H]3/C=C/C(=O)O1)C[C@H](O)[C@H]2C(=O)O [Natamycin (Pimaricin), Natamycin] is ____.
70%

Return reported viability at 10 µM; argument: C[C@H]1[C@H](NC(=O)/C(=N\OC(C)(C)C(=O)O)c2csc(N)n2)C(=O)N1S(=O)(=O)O [Aztreonam (Azactam, Cayston), Aztreonam]
55.2%

What value of viability at 10 µM has been reported for the following compound? CCCN1CCCC[C@H]1C(=O)Nc1c(C)cccc1C [Ropivacaine HCl]
110%

Consider the compound Nc1[nH]c(=O)ncc1F [Flucytosine (Ancobon), Flucytosine] and give its measured viability at 10 µM.
108%

Suppose we examine the compound CCc1c(Cl)c(O)c(Cl)c(O)c1C(=O)O[C@H]1[C@H](O)[C@H](OC)[C@H](OC/C2=C\C=C\C[C@H](O)/C(C)=C/[C@H](CC)[C@@H](O[C@@H]3OC(C)(C)[C@@H](OC(=O)C(C)C)[C@H](O)[C@@H]3O)/C(C)=C/C(C)=C/C[C@@H]([C@@H](C)O)OC2=O)O[C@@H]1C [Fidaxomicin] ; what viability at 10 µM value has been reported?
59.4%
